Each entry below lists one item and its recorded mortality at 0.312 ppm value.
tested on: fourth instar yellow fever mosquito larvae; assay: whole plant or invertebrate; design: species or system Aedes aegypti; details: Aedes aegypti, 24 hr, read-out: Percent Control
Record the value in %, omitting the unit from your answer.

| compound | endpoint_unit | mortality at 0.312 ppm |
| --- | --- | --- |
| CC[C@H]1CCC[C@H](O[C@H]2CC[C@H](NC)[C@@H](C)O2)[C@@H](C)C(=O)C2=C[C@@H]3[C@@H](C=C[C@@H]4C[C@@H](O[C@@H]5O[C@@H](C)[C@H](OC)[C@@H](OC)[C@H]5OC)C[C@@H]34)[C@@H]2CC(=O)O1 [A83543B] | % | 60 |
| CC[C@H]1CCC[C@H](O[C@H]2CC[C@H](N(C)C)[C@@H](C)O2)CC(=O)C2=C[C@@H]3[C@@H](C=C[C@@H]4C[C@@H](O[C@@H]5O[C@@H](C)[C@H](OC)[C@@H](OC)[C@H]5OC)C[C@@H]34)[C@@H]2CC(=O)O1 [A83543F] | % | 0 |

# context switch: different compound, same mortality at 0.312 ppm
Find the recorded mortality at 0.312 ppm belonging to CO[C@@H]1[C@@H](OC)[C@H](C)O[C@@H](O[C@H]2C[C@H]3[C@@H]4C=C5C(=O)[C@H](C)[C@@H](O[C@H]6CC[C@H](N(C)C)[C@@H](C)O6)CCC[C@H](C)OC(=O)C[C@H]5[C@@H]4C=C[C@@H]3C2)[C@@H]1OC [A83543E] and report it.
80
